System: Escherichia coli TOP10
Test: shrunken log2 fold change of peptide-encoding DNA abundance (4.5 h post-induction vs induction); higher = less antimicrobial activity (less host growth inhibition)
Conditions: time post-induction: 4.5 h; library: site-saturation at positions 5, 18, 19, 20
Metric: shrunken log2 fold change
Write no unit; give the number alone.

1) RRIRHRPPRLPRPRPRPWPFPRP | -0.285

Q: State its shrunken log2 fold change: RRIRLRPPRLPRPRPRPWQFPRP
Result: -0.196

Q: State its shrunken log2 fold change: RRIRDRPPRLPRPRPRPTMMPRP
Result: 0.338

Q: State its shrunken log2 fold change: RRIRYRPPRLPRPRPRPSSYPRP
Result: -0.955

Q: State its shrunken log2 fold change: RRIRRRPPRLPRPRPRPAEYPRP
Result: 0.0756

Q: State its shrunken log2 fold change: RRIRDRPPRLPRPRPRPNVNPRP
Result: -0.166

Q: State its shrunken log2 fold change: RRIRFRPPRLPRPRPRPRRWPRP
Result: 0.934

Q: State its shrunken log2 fold change: RRIRKRPPRLPRPRPRPPCYPRP
Result: 0.202

Q: State its shrunken log2 fold change: RRIRARPPRLPRPRPRPRKYPRP
Result: 0.0773

Q: State its shrunken log2 fold change: RRIRSRPPRLPRPRPRPCFEPRP
Result: -0.0192

Q: State its shrunken log2 fold change: RRIRWRPPRLPRPRPRPDHLPRP
Result: 0.08

Q: State its shrunken log2 fold change: RRIRYRPPRLPRPRPRPAWGPRP
Result: 0.0852

Q: State its shrunken log2 fold change: RRIRDRPPRLPRPRPRPKYHPRP
Result: -0.412

----------
System: Escherichia coli TOP10
Assay: shrunken log2 fold change of peptide-encoding DNA abundance (4.5 h post-induction vs induction); higher = less antimicrobial activity (less host growth inhibition)
Conditions: time post-induction: 4.5 h; library: site-saturation at positions 5, 18, 19, 20
Metric: shrunken log2 fold change
Write no unit; give the number alone.

1) RRIRKRPPRLPRPRPRPPCWPRP | 1.03
2) RRIRMRPPRLPRPRPRPGKDPRP | 0.0653
3) RRIRDRPPRLPRPRPRPREFPRP | -0.0261
4) RRIRCRPPRLPRPRPRPVVFPRP | -0.123
5) RRIRPRPPRLPRPRPRPPVDPRP | 0.52
6) RRIRGRPPRLPRPRPRPSFQPRP | 0.198
7) RRIRRRPPRLPRPRPRPDIWPRP | 0.418
8) RRIRSRPPRLPRPRPRPGAWPRP | 0.342

Q: State its shrunken log2 fold change: RRIRHRPPRLPRPRPRPMAHPRP
Result: 0.0179

Q: State its shrunken log2 fold change: RRIRFRPPRLPRPRPRPQLTPRP
Result: -0.527

Q: State its shrunken log2 fold change: RRIRWRPPRLPRPRPRPCECPRP
Result: -0.151

Q: State its shrunken log2 fold change: RRIRRRPPRLPRPRPRPLDCPRP
Result: 0.107

Q: State its shrunken log2 fold change: RRIRKRPPRLPRPRPRPQGAPRP
Result: 0.451

Q: State its shrunken log2 fold change: RRIRQRPPRLPRPRPRPWAWPRP
Result: -0.0707

----------
Measured shrunken log2 fold change, listed per entry for reference.
System: Escherichia coli TOP10;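 note: peptides expressed intracellularly from a pBAD plasmid library in pooled LB shake-flask culture, induced with 0.3% L-arabinose, DNA abundance read by NGS, three biological replicates, DESeq2 with apeglm shrinkage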
Assay: shrunken log2 fold change of peptide-encoding DNA abundance (4.5 h post-induction vs induction); higher = less antimicrobial activity (less host growth inhibition)
Conditions: time post-induction: 4.5 h; library: site-saturation at positions 5, 18, 19, 20

1) RRIRCRPPRLPRPRPRPWRAPRP | 0.0569

Q: State its shrunken log2 fold change: RRIRCRPPRLPRPRPRPGYKPRP
Result: -0.0902

Q: State its shrunken log2 fold change: RRIRPRPPRLPRPRPRPLLYPRP
Result: -0.348

Q: State its shrunken log2 fold change: RRIRNRPPRLPRPRPRPSQVPRP
Result: -0.0797

Q: State its shrunken log2 fold change: RRIRKRPPRLPRPRPRPLGYPRP
Result: 0.202

Q: State its shrunken log2 fold change: RRIRDRPPRLPRPRPRPCGPPRP
Result: 0.0478
